# Measured On: human Npt2a (Homo sapiens)
# Sequence (Q06495 whole entry): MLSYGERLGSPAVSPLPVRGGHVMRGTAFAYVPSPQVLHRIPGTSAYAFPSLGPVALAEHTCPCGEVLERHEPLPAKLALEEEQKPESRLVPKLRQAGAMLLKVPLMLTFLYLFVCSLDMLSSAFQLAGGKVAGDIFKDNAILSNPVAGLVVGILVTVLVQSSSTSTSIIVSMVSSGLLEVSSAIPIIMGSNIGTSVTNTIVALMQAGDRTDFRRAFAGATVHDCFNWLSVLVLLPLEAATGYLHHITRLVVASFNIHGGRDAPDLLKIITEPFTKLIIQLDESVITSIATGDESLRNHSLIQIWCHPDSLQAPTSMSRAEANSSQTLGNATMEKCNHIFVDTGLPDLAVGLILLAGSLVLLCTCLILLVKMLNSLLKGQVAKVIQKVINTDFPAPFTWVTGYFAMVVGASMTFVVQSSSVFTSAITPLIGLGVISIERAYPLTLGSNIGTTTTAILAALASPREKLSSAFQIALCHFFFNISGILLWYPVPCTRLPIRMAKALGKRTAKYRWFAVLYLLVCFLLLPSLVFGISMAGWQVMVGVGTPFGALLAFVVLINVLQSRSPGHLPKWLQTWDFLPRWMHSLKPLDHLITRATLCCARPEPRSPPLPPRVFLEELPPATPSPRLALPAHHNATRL
# Method Notes: Npt2a activity cell based assay, membrane potential dye, CHO T-REx hNpt2a cells
# Study Conditions: doxycycline-induced, depolarization by sodium phosphate influx, average or median values if tested more than once
pIC50: −log10 of the molar value.
// values below are reported pIC50

>  <Compound>
CCc1c(Nc2cc(-n3nc(C)c4c3CCCC4(C)O)ncn2)nn(C)c1-c1ccc(F)cc1 (racemic) [Example 134]

>  <Measured On>
human Npt2a (Homo sapiens)

>  <pIC50>
6.74

$$$$
>  <Compound>
Cc1nn(-c2cc(Nc3[nH]nc(-c4ccc(F)cc4)c3C3CC3)ncn2)c(C)c1Cl [Example 8]

>  <Measured On>
human Npt2a (Homo sapiens)

>  <pIC50>
7.42

$$$$
>  <Compound>
Cc1nn(-c2cc(Nc3c(C)c(-c4ccc(C(F)(F)F)cc4)nn3CC3CC3)ncn2)c(C(C)(C)O)c1Cl [Example 294]

>  <Measured On>
human Npt2a (Homo sapiens)

>  <pIC50>
5.85

$$$$
>  <Compound>
CCc1c(Nc2cc(-n3nc(C)cc3C)ncn2)n[nH]c1-c1ccc(F)cc1F [Example 9]

>  <Measured On>
human Npt2a (Homo sapiens)

>  <pIC50>
7.40

$$$$
>  <Compound>
Cc1nn(-c2cc(Nc3c(C)c(-c4ccc(C#N)cc4)nn3CC3CC3)ncn2)c(C)c1F [Example 268]

>  <Measured On>
human Npt2a (Homo sapiens)

>  <pIC50>
8.10

$$$$
>  <Compound>
CCc1c(Nc2cc(-n3nc(C)cc3C)ncn2)n[nH]c1-c1ccc(F)cc1C [Example 131]

>  <Measured On>
human Npt2a (Homo sapiens)

>  <pIC50>
5.80

$$$$
>  <Compound>
CCc1c(Nc2cc(-n3nc(C)cc3C)ncn2)nn(C)c1-c1ccc(C#N)cc1 [Example 210]

>  <Measured On>
human Npt2a (Homo sapiens)

>  <pIC50>
7.89

$$$$
>  <Compound>
COCCn1nc(-c2ccc(F)cc2)c(C)c1Nc1cc(-n2nc(C)c(OC)c2C)ncn1 [Example 526]

>  <Measured On>
human Npt2a (Homo sapiens)

>  <pIC50>
7.77

$$$$
>  <Compound>
Cc1cc(C)n(-c2cc(Nc3c(C)c(-c4ccc(C(F)(F)F)nc4)nn3C)ncn2)n1 [Example 549]

>  <Measured On>
human Npt2a (Homo sapiens)

>  <pIC50>
5.59

$$$$
>  <Compound>
CCOC(=O)c1c(C)nn(-c2cc(Nc3n[nH]c(-c4ccccc4)c3Cl)ncn2)c1C [Example 51]

>  <Measured On>
human Npt2a (Homo sapiens)

>  <pIC50>
7.00

$$$$
>  <Compound>
CCc1c(Nc2cc(-n3nc(C)cc3C)ncn2)n[nH]c1C1CCCCC1 [Example 28]

>  <Measured On>
human Npt2a (Homo sapiens)

>  <pIC50>
6.31

$$$$
>  <Compound>
CCOC(=O)c1c(C)nn(-c2cc(Nc3nn(CC4CC4)c(-c4ccc(F)cc4)c3Cl)ncn2)c1C [Example 153]

>  <Measured On>
human Npt2a (Homo sapiens)

>  <pIC50>
6.39

$$$$
>  <Compound>
Cc1nn(-c2cc(Nc3c(C)c(-c4ccc(F)cc4)nn3C)ncn2)c(C)c1C(F)(F)F [Example 382]

>  <Measured On>
human Npt2a (Homo sapiens)

>  <pIC50>
7.46

$$$$
>  <Compound>
Cc1cc(C(F)F)n(-c2cc(Nc3c(C)c(-c4ccc(C#N)cc4)nn3C)ncn2)n1 [Example 240]

>  <Measured On>
human Npt2a (Homo sapiens)

>  <pIC50>
7.74

$$$$
>  <Compound>
Cc1cc(C)n(-c2cc(Nc3c(C4CC4)c(-c4ccc(F)cc4)nn3C)ncn2)n1 [Example 43]

>  <Measured On>
human Npt2a (Homo sapiens)

>  <pIC50>
6.84

$$$$
>  <Compound>
Cc1nn(-c2cc(Nc3c(C)c(-c4ccc(C#N)cc4)nn3CC3CC3)ncn2)c(C)c1C(O)C(F)(F)F (single isomer, unassigned) [Example 360]

>  <Measured On>
human Npt2a (Homo sapiens)

>  <pIC50>
8.22

$$$$
